Documented CRF2R Emax % across a set of binders
TARGET_OR_TEST_SYSTEM: T1, CRF2R; also: reference of the scale not given here
T1 sequence (Q13324 whole entry, species assumed, looked up): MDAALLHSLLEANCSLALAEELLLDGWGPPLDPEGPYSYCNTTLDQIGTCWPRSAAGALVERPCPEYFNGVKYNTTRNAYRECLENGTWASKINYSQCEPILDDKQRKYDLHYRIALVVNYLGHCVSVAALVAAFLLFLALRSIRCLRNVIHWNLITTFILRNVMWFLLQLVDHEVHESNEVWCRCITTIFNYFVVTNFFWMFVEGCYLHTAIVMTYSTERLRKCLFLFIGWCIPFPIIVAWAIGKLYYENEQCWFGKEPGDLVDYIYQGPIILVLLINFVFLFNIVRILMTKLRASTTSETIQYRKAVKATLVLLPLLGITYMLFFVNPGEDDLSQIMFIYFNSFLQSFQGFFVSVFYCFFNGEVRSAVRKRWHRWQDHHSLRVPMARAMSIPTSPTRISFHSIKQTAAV
ASSAY_PROCEDURE: cell-based or functional assay
Ends that are not written are not given here.
Please give a number only; it is taken to be in %.

{"BINDER": "ZGPPISIDLPIFLLRKVIEIEKQEKEKQQAANNARLLARI (C-terminal amide) [SEQ ID NO 281]", "CRF2R Emax % (%)": 78.8}
{"BINDER": "ZGPPISIDLPYWLLRKMIEIEKQEKEKQQAANNALLLDTI (C-terminal amide) [SEQ ID NO 310]", "CRF2R Emax % (%)": 87.5}
{"BINDER": "DNPSLSIDVPLFLLRTLLELEKTQSQRERAEQNARIFARV-NH2 [SEQ ID NO 385]", "CRF2R Emax % (%)": 100}
{"BINDER": "ZGPPISIDLPYQLLRKMIEIEKQEKEKQQAANNARLLAR (C-terminal amide) [SEQ ID NO 288]", "CRF2R Emax % (%)": 100}
{"BINDER": "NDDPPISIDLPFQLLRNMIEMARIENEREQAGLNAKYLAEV-NH2 [SEQ ID NO 258]", "CRF2R Emax % (%)": 49.3}

Read the next record carefully.
Exercise: May I ask what CRF2R Emax % has been recorded for ZGPPISIDLPFQLLRKVIEIEKQEKEKQQAANNAHLLAHI (C-terminal amide) [SEQ ID NO 277] ?
Solution: 100
